Overview of reported growth across a group of compounds:
System: NCI-H460 lung
Test: NCI-60 one-dose screen, 48 h (100 = growth as untreated, 0 = no growth, -100 = all killed)
Details: 10 µM
This is part of a sample that, as a whole, favours compounds with a hit. Of some 83,000 tested, about 20% had one in any assay. The source made the active and inactive calls. How the source made its calls: active means growth percent below 10; inactive means the rest.

Recorded growth, per entry:
In [3]: df
Out[3]:
                                   compound    value_observed
0  N#C/C(=C/N1C(=O)/C(=C/c2ccc([N+](=O)[O-])cc2)SC1=S)c1nc2ccccc2s1  90.3% (inactive)
1  O=C1C(Cl)=C(Cl)C(Cl)(Cl)C(Cl)C1(Cl)Cl (stereo not given)   118% (inactive)
2  CC1CCC2(C(=O)O)CCC3(C)C(=CCC4C5(C)CC(O)C(O)C(C)(CO)C5C(O)CC43C)C2C1C (stereo not given)   111% (inactive)

Q. I would be grateful if you could share the reported growth for O=[N+]([O-])c1cc(S(=O)(=O)Nc2ccccc2)ccc1Cl .
A. 108% (inactive)

Q. So what's the measured growth for this one? CN(C)CCNc1cccc2sc3ccc(O)cc3c(=O)c12
A. 16% (inactive)
